# credit: PubChem BioAssay (NCI)

# Test system: SK-MEL-5 melanoma
# Protocol notes: NCI-60 one-dose screen, 48 h (100 = growth as untreated, 0 = no growth, -100 = all killed)
# Details: 10 µM
# Procedure: Growth inhibition of the SK-MEL-5 human tumor cell line is measured as a screen for anti-cancer activity. Cells are grown in 96 well plates and exposed to the test compound for 48 hours. Compounds are tested at a single concentration, which is 10^-5 M for most compounds. The reported endpoint is percent growth (GI% or GIPRCNT), where numbers from 0 - 100% represent growth inhibition, and numbers from -100% - 0 represent cell death. For example, a value of 40 represents 60% growth inhibition. […]
Compounds without any hit were thinned out: in the full panel of roughly 83,000, 20% have a hit. Activity calls are given as the source filed them. Rule for the calls: active = growth percent below 10; inactive = the rest. Where a SMILES comes first, the peptide text is derived from it. Bridges are numbered along the chain shown (N, C = ends). [ ]: non-standard residue; d: D form. The star is where a group is joined. ξ: configuration not given here. ξNMePhe(4-NMe2) = CNC(Cc1ccc(N(C)C)cc1)C(=O)O; Picolinoyl(3-OH) = O=C(c1ncccc1O)*; ξPip(4-oxo) = O=C1CCNC(C(=O)O)C1; Phg = N[CH](C(=O)O)c1ccccc1; Abu = CC[CH](N)C(=O)O
For each record, write down the corresponding growth.

Example results:
Molecule	growth
CCN(CC)CCCC(C)Nc1ccnc(/C=C/c2ccc(Cl)cc2)c1 (stereo not given)	-96.7% (active)
CCOc1ccc2[nH]c(=S)sc2c1	101% (inactive)
Clc1ccc(-c2n[nH]c3c2Cc2ccccc2-3)cc1Cl	95.6% (inactive)
CCC1NC(=O)C(NC(=O)c2ncccc2O)C(C)OC(=O)C(c2ccccc2)NC(=O)C2CC(=O)CCN2C(=O)C(Cc2ccc(N(C)C)cc2)N(C)C(=O)C2CCCN2C1=O (stereo not given) (tested in a mixture with another compound) ({Picolinoyl(3-OH)}-T[Abu]P[ξNMePhe(4-NMe2)][ξPip(4-oxo)][Phg]; ester 1-C; configuration not given here)	-21.7% (active)

Given `N#Cc1c(N)sc(=S)c2c1CCCC2` , state its recorded growth. 114% (inactive)

----------
# System: COLO 205 colon
# Protocol notes: NCI-60 one-dose screen, 48 h (100 = growth as untreated, 0 = no growth, -100 = all killed)
# Details: 10 µM
This is part of a sample that, as a whole, favours compounds with a hit. Of some 83,000 tested, about 20% had one in any assay.
For each record, write down the corresponding growth.
Answers are plain numbers, in %.

Compound	Tested on	growth, %
CCCCC(=O)c1ccc(OC)cc1	COLO 205 colon	118
C#CC(C)(O)c1ccc(Cl)cc1 (stereo unspecified)	COLO 205 colon	103

For every record below, what is its growth?
1. NC(=S)CN1CCOCC1
2. CC(=O)OCCC(C)CCC=C(C)C (stereo unspecified)
3. CCOc1ccc(/C=N/N=C(N)N)cc1OCC
4. CC(C)CCOC(=O)c1ccccc1

[118, 114, 107, 105]

For every record below, what is its growth?
1. COc1ccc2c(c1)CCc1c-2n[nH]c1-c1[nH]nc2c1CCc1cc(OC)ccc1-2
2. c1ccc(Sc2ccccc2)cc1
3. O=C(O)/C=C/c1ccc2c(c1)CCC2
4. O=[N+]([O-])c1ccccc1N=Nc1ccc(O)cc1O
5. CC(CC(=O)c1ccccc1)c1ccccc1 (stereo unspecified)
6. CC(=O)OC(OC(C)=O)C1CCCO1 (stereo unspecified)
7. OCC(O)C(O)C(O)C(O)/C=N/O (stereo unspecified)

[67.8, 115, 105, 102, 123, 105, 112]
